Target: T1, huCTLA-4 ECD (his-tag) (human, UniProt P16410 37-162)
T1 construct: also called HX1 hCTLA4 his; HX1 huCTLA4 his; not shown: his-tag
T1 sequence: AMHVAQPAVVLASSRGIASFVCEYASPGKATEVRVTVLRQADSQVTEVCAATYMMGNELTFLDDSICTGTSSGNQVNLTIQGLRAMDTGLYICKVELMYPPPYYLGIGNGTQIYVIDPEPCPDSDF
Assay: ELISA, coated huCTLA-4 his
parameter.measured: binding result

1) HuJS007-80 (antibody, V domains shown, 1A5 VH5 + 4B7VL8; constant regions not specified) VH: QVQLQESGPGLVKPSQTLSLTCAVSGYSISSGYYWNWIRQPPGKGLEWIGYIGYDGSNYYNPSLKSRVTMSVDTSKNQFSLKLSSVTAVDTAVYYCARNYYSGYFDSWGQGTTVTVSS VL: DIVMTQSPDSLAVSLGERATINCKASQNVGTYVAWYQQKPGQPPKPLIYSTSYRYSGVPDRFSGSGSGTDFTLTISSLQAEDVAVYFCHQYDTYPLTFGQGTKLEIK :: binds
2) HuJS007-60 (antibody, V domains shown, 4B7 VH2-3 + 4B7VL6; constant regions not specified) VH: QVQLQESGPGLVKPSETLSLTCTVSGYSITSGYYWNWIRQPPGKGLEWIGYIGYDGSNNYNPSLKSRVTISRDTSKNQFSLKLSSVTAADTAVYYCARDYYSGYFDSWGQGTTLTVSS VL: DIVMTQSPDSLAVSLGERATINCKASQNVGTYVAWYQQKPGQPPKLLIYSTSYRYSGVPDRFSGSGSGTDFTLTISSLQAEDVAVYYCHQYDTYPLTFGQGTKLEIK :: binds
3) HuJS007-46 (antibody, V domains shown, 4B7 VH2-2 + 4B7VL1; constant regions not specified) VH: QVQLQESGPGLVKPSQTLSLTCTVSAYSITSGYYWNWIRQHPGKGLEWIGYIGYDGSNNYNPSLKSRVTISRDTSKNQFSLKLSSVTAADTAVYYCARDYYSGYFDSWGQGTTLTVSS VL: DIVMTQSPDSLAVSLGERATINCKASQNVGTYVAWYQQKPGQPPKPLIYSTSYRYSGVPDRFSGSGSGTDFTLTISSLQAEDVAVYFCHQYDTYPLTFGAGTKLELK :: binds
4) HuJS007-90 (antibody, V domains shown, 1A5 VH6 + 4B7VL9; constant regions not specified) VH: QVQLQESGPGLVKPSQTLSLTCAVSGYSISSGYYWNWIRQFPGKGLEWMGYIGYDGSNYYNPSLKNRVTMSVDTSKNQFSLKLSSVTAVDTAVYYCARNYYSGYFDSWGQGTTVTVSS VL: EIVMTQSPATLSVSPGERATLSCKASQNVGTYVAWYQQKPGQAPRPLIYSTSYRYSGIPARFSGSGSGTEFTLTISSLQSEDFAVYFCHQYDTYPLTFGQGTKLEIK :: binds

Ref: patent US20230295301A1
